test system: gene editing with Cas9; assay: Screen of 322 new SSAP proteins, gene editing activity with Cas9 (Table 5); format: cell-based; details: normalized
Exercise: state measured Cas9 with SSAP activity (normalized) for each of the molecules provided.
Form rule: numeric answer, no unit written next to it.

Q: # input molecule: SSAP_197: SEQ ID NO: 366; Arsenophonus sp. ENCA (protein, listed as Arsenophonus sp.) NTELETMNNVYDNLQSVIMQQGIAALLPAQVTPEQFTRTAATALIENVDLQNADKQSLVLALTRCAKDGLMPDGREAALVVRSTKVNKQFVKKAVYMPMVDGVIKRARQSGQVANIIAKVVYSQDEFEYVIDENGEHLTHRPAFVDGDDIVKVYAFAKLNSGELVVEVMSRAGVEKIRDTVQSAKYDSSPWVKWFDRMALKTVIHRLARRLPCASELFSLFEVYEDANSTEKTLRMAPASFKRLSIN ; wanted: its Cas9 with SSAP activity (normalized)
Result: −1.134

Q: # input molecule: SSAP_227: SEQ ID NO: 396; Streptococcus parauberis (protein, listed as Streptococcus parauberis) ANQLTVVNTLQSDAVKEKFEAVMGEKANGFVSSVLSVVTNNNILSKADFNSVYTSAMKAAVLDLPVEPSLGMAHIVPYKGKAQFQIGYKGLIQLALRSGQVVGLNAGKVYEGQFKSFNALTEKLDIVDIYNPKKDEPIVGYFAYMKLSNGFEKTTYWTKEQVEEHGKKYSQSYDSKFSPWQTNFDAMARKTVLKSILSTYAPLTIEMQNANDFDNGKNTGIEPLEVKDVTPETDNESLLTDLLEDEPSVNTETGEIIEDTELDLDYGQINAK ; wanted: its Cas9 with SSAP activity (normalized)
Result: −0.310
